- EXPERIMENTAL_TARGET: RNA-directed RNA polymerase (Hepacivirus hominis, UniProt O39930)
RECORDED_METRIC: IC50 (µM)
Supply the numeric figure in µM, leaving out any unit text.

Requested read-out: IC50. Entry: O=C(O[C@@H]1O[C@@H]2COC(=O)c3cc(O)c(O)c(O)c3-c3c(cc(O)c(O)c3O)C(=O)O[C@H]([C@H]1O)[C@@H]2O)c1cc(O)c(O)c(O)c1
20

###

- EXPERIMENTAL_TARGET: Hepatitis C virus serine protease, NS3/NS4A (Hepatitis C virus, UniProt A3EZI9+D2K2A8)
- Sequence (D2K2A8 whole entry): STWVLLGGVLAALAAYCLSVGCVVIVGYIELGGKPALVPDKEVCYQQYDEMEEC
- Sequence (A3EZI9 whole entry): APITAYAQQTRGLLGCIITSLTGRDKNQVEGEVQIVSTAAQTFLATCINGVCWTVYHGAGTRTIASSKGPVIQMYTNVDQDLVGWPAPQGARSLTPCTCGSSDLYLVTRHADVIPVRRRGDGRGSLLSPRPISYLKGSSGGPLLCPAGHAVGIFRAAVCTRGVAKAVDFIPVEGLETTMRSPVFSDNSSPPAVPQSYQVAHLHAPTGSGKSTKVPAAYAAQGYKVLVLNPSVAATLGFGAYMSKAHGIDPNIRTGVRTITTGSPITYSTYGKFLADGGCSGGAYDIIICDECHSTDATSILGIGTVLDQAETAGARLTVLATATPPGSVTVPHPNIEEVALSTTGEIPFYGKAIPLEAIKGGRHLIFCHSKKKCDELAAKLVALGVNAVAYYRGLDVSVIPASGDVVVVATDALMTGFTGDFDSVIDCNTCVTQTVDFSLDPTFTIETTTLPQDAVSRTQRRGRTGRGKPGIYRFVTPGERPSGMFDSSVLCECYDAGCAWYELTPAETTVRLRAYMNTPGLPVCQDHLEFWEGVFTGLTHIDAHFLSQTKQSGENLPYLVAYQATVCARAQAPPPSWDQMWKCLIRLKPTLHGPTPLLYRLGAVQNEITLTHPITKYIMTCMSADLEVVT
- METHOD_SUMMARY: Inhibition of HCV GT1b recombinant NS3/4A protease using Ac-Glu-Glu-Val-Val-Ala-Cys-AMC as substrate and measured by fluorescence based assay
- Format: protein-complex assay, Hepacivirus hominis, subtype 1b
RECORDED_METRIC: IC50 (µM)
Supply the numeric figure in µM, leaving out any unit text.

Requested read-out: IC50. Entry: CC(C)c1ccc(NC(=O)N[C@@H](Cc2c[nH]c3ccccc23)C(=O)NCCCN2CCCCC2)cc1
4.6
